Task for the reader: assign each of the following binders its reported koff.
Target: T1, N(A2B2)A-avi-His (biotinylated at the avi tag)
T1 construct: also called biotinylated N(A2B2)A-avi-His
T1 chain: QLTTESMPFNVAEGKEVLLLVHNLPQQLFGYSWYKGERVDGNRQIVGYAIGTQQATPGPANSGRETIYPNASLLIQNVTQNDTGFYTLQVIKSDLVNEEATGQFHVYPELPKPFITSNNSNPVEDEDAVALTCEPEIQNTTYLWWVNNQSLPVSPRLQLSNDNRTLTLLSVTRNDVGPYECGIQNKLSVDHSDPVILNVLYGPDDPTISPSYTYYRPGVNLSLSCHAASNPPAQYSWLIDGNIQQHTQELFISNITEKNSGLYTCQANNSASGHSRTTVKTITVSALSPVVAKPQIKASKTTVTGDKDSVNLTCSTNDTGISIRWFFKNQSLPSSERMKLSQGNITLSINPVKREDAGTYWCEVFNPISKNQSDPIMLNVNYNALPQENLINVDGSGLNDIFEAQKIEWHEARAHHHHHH
Assay: SPR, ProteOn, antigen on NLC chip, purified Fab as analyte
Answer with a number only, understood to be in s⁻¹.

Q: Consider the binder P002.139 Fab (Fab, V domains shown, Fab from E. coli) VH: EVQLLESGGGLVQPGGSLRLSCAASGFYFTDYAMNWVRQAPGKGLEWLGVISNKANAYTTEYSASVKGRFTISRDKSKNTLYLQMNSLRAEDTATYYCTRDRGLRFYFDYWGQGTTVTVSS VL: EIVLTQSPATLSLSPGERATLSCHASSSVTYIHWYQQKPGQAPRSWIYATSNLASGIPARFSGSGSGTDFTLTISSLEPEDFAVYYCQHWSSKPPTFGQGTKLEIK and give its measured koff.
Result: 6.53e-05

Q: Consider the binder P006.038 Fab (Fab, V domains shown, Fab from E. coli) VH: EVQLLESGGGLVQPGGSLRLSCAASGFTFTDYYMNWVRQAPGKGLEWLGFIGNKANAYTTEYSASVKGRFTISRDKSKNTLYLQMNSLRAEDTATYYCTRDRGIRFGFDYWGQGTTVTVSS VL: EIVLTQSPATLSLSPGERATLSCRASSSVTYIHWYQQKPGQAPRSWIYATSNLASGIPARFSGSGSGTDFTLTISSLEPEDFAVYYCQHWSSVPPTFGQGTKLEIK and give its measured koff.
Result: 5.78e-05

Q: Consider the binder P001.177 Fab (Fab, V domains shown, Fab from E. coli) VH: EVQLLESGGGLVQPGGSLRLSCAASGFYFTDYYMNWVRQAPGKGLEWLGFISNKANAYTTEYSASVKGRFTISRDKSKNTLYLQMNSLRAEDTATYYCTRDRGLRFYFDYWGQGTTVTVSS VL: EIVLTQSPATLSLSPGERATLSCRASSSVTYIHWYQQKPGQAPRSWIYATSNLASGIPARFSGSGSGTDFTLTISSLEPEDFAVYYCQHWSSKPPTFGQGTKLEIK and give its measured koff.
Result: 7.85e-05

Q: Consider the binder P005.103 Fab (Fab, V domains shown, Fab from E. coli) VH: EVQLLESGGGLVQPGGSLRLSCAASGFTFTDYYMNWVRQAPGKGLEWLGFIGNKANAYTTEYSASVKGRFTISRDKSKNTLYLQMNSLRAEDTATYYCTRDRGIRFYFDYWGQGTTVTVSS VL: EIVLTQSPATLSLSPGERATLSCRASSSVTYIHWYQQKPGQAPRSWIYATSNLASGIPARFSGSGSGTDFTLTISSLEPEDFAVYYCQHWSSISPTFGQGTKLEIK and give its measured koff.
Result: 4.99e-05
